Entries and their FRAP
method-description: FRAP (Ferric Reducing Antioxidant Power) assay
setup-conditions: Trolox standard, 37 °C 10 min, 593 nm; mean ± SEM
Excerpt: The FRAP (Ferric Reducing Antioxidant Power) test allows the measurement of the ability of antioxidants to reduce ferric ion to ferrous. […] The FRAP test (Ferric Reducing Antioxidant Power) is based on a colorimetric reaction and evaluates the ability of a sample of reducing ferric ions to ferrous ion while complexed with TPTZ (2,4,6-trispyridil-s-triazine). […] Trolox® was used as a standard and the results are expressed as µmolTE/g.

compound	FRAP (µmolTE/g)
O=C(C=Cc1ccccc1)Nc1nc2ccccc2s1 [BZTcin1, N-(benzo[d]thiazol-2-yl)cinnamamide]	98.69
O=C(/C=C/c1ccc(O)cc1)Nc1nc2ccccc2s1	43.73
COc1ccc(/C=C/C(=O)Nc2nc3ccccc3s2)cc1	42.12
COc1ccc(/C=N/NC(=O)c2nc3ccccc3s2)cc1O	1758.16
COc1ccc(/C=C/C(=O)Nc2nc3ccccc3s2)cc1O	2043.33
O=C(N/N=C/c1ccccc1)c1nc2ccccc2s1	282.16

* * *

method-description: FRAP (Ferric Reducing Antioxidant Power) assay
setup-conditions: Trolox standard, 37 °C 10 min, 593 nm; mean ± SEM
Entries and their FRAP

smiles-str	FRAP [µmolTE/g]
COc1cc(/C=N/NC(=O)c2nc3ccccc3s2)ccc1O	3826.51
COc1ccc(/C=N/NC(=O)c2nc3ccccc3s2)cc1	273.99
O=C(N/N=C/c1ccc(O)cc1)c1nc2ccccc2s1	1160.24

* * *

property-label: melting point

O=C(N/N=C/c1ccccc1)c1nc2ccccc2s1 227 to 230 °C
COc1ccc(/C=C/C(=O)Nc2nc3ccccc3s2)cc1 260 to 262 °C
COc1ccc(/C=N/NC(=O)c2nc3ccccc3s2)cc1 208 to 215 °C
O=C(N/N=C/c1ccc(O)c(O)c1)c1nc2ccccc2s1 > 280 °C

* * *

method-description: In vitro filtering parameters of O/W sunscreen formulation containing 3% compound (modified Diffey-Robson, PMMA plates)
setup-conditions: 3% in formulation, before irradiation

compound	UVAPF0
O=C(/C=C/c1ccc(O)c(O)c1)Nc1nc2ccccc2s1 [BZTcin4]	11.40
O=C(N/N=C/c1ccc(O)c(O)c1)c1nc2ccccc2s1 [BZTidr4]	1.65
O=S(=O)(O)c1ccc2nc(-c3ccccc3)[nH]c2c1 [PBSA, reference compound]	1.13
COc1ccc(/C=N/NC(=O)c2nc3ccccc3s2)cc1O [BZTidr5]	1.58
O=C(N/N=C/c1ccc(O)cc1)c1nc2ccccc2s1 [BZTidr2]	1.96
COc1ccc(/C=N/NC(=O)c2nc3ccccc3s2)cc1 [BZTidr3]	1.44
O=C(/C=C/c1ccc(O)cc1)Nc1nc2ccccc2s1 [BZTcin2]	11.79
COc1cc(/C=N/NC(=O)c2nc3ccccc3s2)ccc1O [BZTidr6]	1.36
COc1ccc(/C=C/C(=O)Nc2nc3ccccc3s2)cc1O [BZTcin5]	3.61
COc1ccc(/C=C/C(=O)Nc2nc3ccccc3s2)cc1 [BZTcin3]	1.38
O=C(C=Cc1ccccc1)Nc1nc2ccccc2s1 [BZTcin1, N-(benzo[d]thiazol-2-yl)cinnamamide]	1.38
O=C(N/N=C/c1ccccc1)c1nc2ccccc2s1 [BZTidr1]	1.37

* * *

method-description: UV spectra in solution (MeOH-DMSO): λmax and molar extinction coefficient
Format: physicochemical
setup-conditions: solution in MeOH-DMSO, 290–400 nm
property-label: λmax (nm)

compound	value-reported
O=C(N/N=C/c1ccc(O)cc1)c1nc2ccccc2s1	335.3
COc1ccc(/C=N/NC(=O)c2nc3ccccc3s2)cc1O	342.4
COc1ccc(/C=C/C(=O)Nc2nc3ccccc3s2)cc1O	342.0
O=C(C=Cc1ccccc1)Nc1nc2ccccc2s1 [BZTcin1, N-(benzo[d]thiazol-2-yl)cinnamamide]	317.0
COc1ccc(/C=C/C(=O)Nc2nc3ccccc3s2)cc1	334.5
O=C(N/N=C/c1ccc(O)c(O)c1)c1nc2ccccc2s1	346.2
O=C(N/N=C/c1ccccc1)c1nc2ccccc2s1	319.4
COc1cc(/C=N/NC(=O)c2nc3ccccc3s2)ccc1O	344.8
COc1ccc(/C=N/NC(=O)c2nc3ccccc3s2)cc1	333.1
O=C(/C=C/c1ccc(O)c(O)c1)Nc1nc2ccccc2s1	347.7
O=C(/C=C/c1ccc(O)cc1)Nc1nc2ccccc2s1	335.6

* * *

method-description: In vitro filtering parameters of O/W sunscreen formulation containing 3% compound (modified Diffey-Robson, PMMA plates)
setup-conditions: 3% in formulation, before irradiation
property-label: SPF

compound	property-label	value-reported
O=C(/C=C/c1ccc(O)cc1)Nc1nc2ccccc2s1	SPF	12.26
COc1ccc(/C=N/NC(=O)c2nc3ccccc3s2)cc1	SPF	1.31
O=S(=O)(O)c1ccc2nc(-c3ccccc3)[nH]c2c1 [PBSA, reference compound]	SPF	1.91
COc1ccc(/C=C/C(=O)Nc2nc3ccccc3s2)cc1	SPF	1.32
COc1cc(/C=N/NC(=O)c2nc3ccccc3s2)ccc1O	SPF	1.24
O=C(N/N=C/c1ccc(O)cc1)c1nc2ccccc2s1	SPF	1.85
O=C(N/N=C/c1ccccc1)c1nc2ccccc2s1	SPF	1.48
COc1ccc(/C=C/C(=O)Nc2nc3ccccc3s2)cc1O	SPF	3.84
O=C(C=Cc1ccccc1)Nc1nc2ccccc2s1 [BZTcin1, N-(benzo[d]thiazol-2-yl)cinnamamide]	SPF	1.74
COc1ccc(/C=N/NC(=O)c2nc3ccccc3s2)cc1O	SPF	1.60
O=C(N/N=C/c1ccc(O)c(O)c1)c1nc2ccccc2s1	SPF	1.53
O=C(/C=C/c1ccc(O)c(O)c1)Nc1nc2ccccc2s1	SPF	9.70

* * *

Entries and their ε (molar extinction coefficient)
method-description: UV spectra in solution (MeOH-DMSO): λmax and molar extinction coefficient
Assay type: physicochemical
setup-conditions: at λmax, Lambert-Beer equation; in M-1 cm-1 (unit assumed)
property-label: ε (molar extinction coefficient)

molecule	property-label	value-reported
O=C(/C=C/c1ccc(O)cc1)Nc1nc2ccccc2s1 [BZTcin2]	ε (molar extinction coefficient)	32240.17
O=C(N/N=C/c1ccc(O)c(O)c1)c1nc2ccccc2s1 [BZTidr4]	ε (molar extinction coefficient)	22183.99
O=C(/C=C/c1ccc(O)c(O)c1)Nc1nc2ccccc2s1 [BZTcin4]	ε (molar extinction coefficient)	22387.64
O=C(N/N=C/c1ccc(O)cc1)c1nc2ccccc2s1 [BZTidr2]	ε (molar extinction coefficient)	28637.64
COc1cc(/C=N/NC(=O)c2nc3ccccc3s2)ccc1O [BZTidr6]	ε (molar extinction coefficient)	22071.63
O=C(C=Cc1ccccc1)Nc1nc2ccccc2s1 [BZTcin1, N-(benzo[d]thiazol-2-yl)cinnamamide]	ε (molar extinction coefficient)	33033.71
COc1ccc(/C=C/C(=O)Nc2nc3ccccc3s2)cc1 [BZTcin3]	ε (molar extinction coefficient)	36271.07
COc1ccc(/C=C/C(=O)Nc2nc3ccccc3s2)cc1O [BZTcin5]	ε (molar extinction coefficient)	20688.20
O=C(N/N=C/c1ccccc1)c1nc2ccccc2s1 [BZTidr1]	ε (molar extinction coefficient)	33223.32
O=S(=O)(O)c1ccc2nc(-c3ccccc3)[nH]c2c1 [PBSA, reference compound]	ε (molar extinction coefficient)	23881.86
COc1ccc(/C=N/NC(=O)c2nc3ccccc3s2)cc1 [BZTidr3]	ε (molar extinction coefficient)	29641.85
COc1ccc(/C=N/NC(=O)c2nc3ccccc3s2)cc1O [BZTidr5]	ε (molar extinction coefficient)	23462.08
